Test system: Aβ1-42 (Homo sapiens, UniProt P05067)
Construct: Aβ1-42 lyophilized powder (Bachem) was reconstituted in hexafluoroisopropanol (HFIP) to 1 mM; purchased Bachem
Sequence (P05067 672-713 limits assumed): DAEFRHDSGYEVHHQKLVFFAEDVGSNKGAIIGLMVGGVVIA
Method description: Thioflavin T spectrofluorescence assay: inhibition of Aβ1-42 aggregation
Format: biochemical
Test context: 24 h
Structures can show the parent of a compound that is named as a salt.
Decision: inhibition at 330 µM compared against 60%; not below it gives YES, below it gives NO.

INSERT INTO measurements (molecule, cat) VALUES
  ('COc1ccc(-c2c(NCCNc3n[nH]c(C)c3-c3ccc(OC)cc3)n[nH]c2C)cc1 [Compound 1t, dihydrochloride]', 'NO'),
  ('Cc1ccc(-c2cc(NCCNc3cc(-c4ccc(C)cc4)[nH]n3)n[nH]2)cc1 [Compound 1d, bishydrochloride]', 'YES'),
  ('FC(F)(F)c1cccc2[nH]nc(NCCNc3n[nH]c4cccc(C(F)(F)F)c34)c12 [Compound 1ai, bishydrochloride]', 'NO'),
  ('Cc1cc(NC(=O)C(=O)Nc2cc(C)[nH]n2)n[nH]1 [Ampox, reference compound]', 'NO'),
  ('c1ccc(Cc2cc(NCCNc3cc(Cc4ccccc4)[nH]n3)n[nH]2)cc1 [Compound 1l, dihydrochloride]', 'NO'),
  ('Clc1ccc(-c2cc(NCCNc3cc(-c4cccs4)[nH]n3)n[nH]2)cc1 [Compound 1ah, bishydrochloride]', 'YES');

* * *

Readings of melting point for the listed compounds
Counter-ions that a name gives are not always drawn.
Observable: melting point

INSERT INTO measurements (compound, observable, recorded_result) VALUES
  ('c1[nH]nc(NCCNc2n[nH]cc2C2CC2)c1C1CC1 (as salt: hydrochloride) [Compound 1v, bishydrochloride]', 'melting point', '178 to 182 °C (dec.)'),
  ('c1ccc(Cc2cc(NCCNc3cc(Cc4ccccc4)[nH]n3)n[nH]2)cc1 (as salt: hydrochloride) [Compound 1l, dihydrochloride]', 'melting point', '177 to 178 °C'),
  ('c1coc(-c2cc(NCCNc3cc(-c4ccco4)[nH]n3)n[nH]2)c1 (as salt: hydrochloride) [Compound 1m, bishydrochloride]', 'melting point', '214 to 216 °C'),
  ('c1ccc(-c2cc(NCCNc3cc(-c4ccccn4)[nH]n3)n[nH]2)nc1 (as salt: hydrochloride)', 'melting point', '> 250 °C'),
  ('c1c(NCCNc2cc(C3CC3)[nH]n2)n[nH]c1C1CC1 (as salt: hydrochloride) [Compound 1i, bishydrochloride]', 'melting point', '205 to 206 °C'),
  ('Clc1ccc(-c2c[nH]nc2NCCNc2n[nH]cc2-c2ccc(Cl)cc2)cc1 (as salt: hydrochloride) [Compound 1s, bishydrochloride]', 'melting point', '228 °C'),
  ('Cc1ccc(-c2cc(NCC(=O)Nc3cc(C)[nH]n3)n[nH]2)cc1', 'melting point', '180 °C'),
  ('c1ccc(-c2ccc(-c3cc(NCCNc4cc(-c5ccc(-c6ccccc6)cc5)[nH]n4)n[nH]3)cc2)cc1 (as salt: hydrochloride) [Compound 1am, bishydrochloride]', 'melting point', '220 to 222 °C'),
  ('Cc1ccc(-c2cc(NC(=O)CNc3cc(-c4ccc(Cl)cc4)[nH]n3)n[nH]2)cc1', 'melting point', '251 °C');
